# Procedure Details: gradient 5% acetonitrile 3 min, to 50% in 2 min, to 85% in 15 min, held 3 min, 100 µL/min
# Reported Conditions: column: Zorbax Extend-C18 2.1 x 50 mm; eluents: water / acetonitrile, 0.1% formic acid
Listing of recorded RP-LC retention time by entry.
Kindly provide the numeric value in s only, without the unit symbol.

Example results:
>>> numeric_result("O=C1CC(c2ccccc2)N(S(=O)(=O)c2cccc3nsnc23)CCCCCCN1 (centres undefined)")
886
>>> numeric_result("Cc1ccccc1S(=O)(=O)N1CCC(C(=O)NCc2csc(-c3cccs3)n2)CC1")
898
>>> numeric_result("CS(=O)(=O)N1CCC(C(=O)N2CCC(Oc3nc4ccc(F)cc4s3)CC2)CC1")
779
>>> numeric_result("Cc1ccc(C)c(NS(=O)(=O)c2cc(-c3[nH]ncc3C(=O)N3CCCCC3)oc2C)c1")
799
>>> numeric_result("Cc1nc(Nc2ccc(F)cn2)sc1C(=O)NC(C)c1ccc(F)cc1 (centres undefined)")
887

Then this compound:
Query: Which RP-LC retention time reading was recorded for the compound COc1ccc(C(=O)N2CCCC(c3nnc(-c4ccccc4)o3)C2)cc1 (centres undefined) ?
Result: 804

---

Listed here: items and their measured RP-LC retention time.
# Procedure Details: gradient 5% acetonitrile 3 min, to 50% in 2 min, to 85% in 15 min, held 3 min, 100 µL/min
# Reported Conditions: column: Zorbax Extend-C18 2.1 x 50 mm; eluents: water / acetonitrile, 0.1% formic acid
Field: numeric (s). Do not append units.

Query: If you can, please state the reported RP-LC retention time value of O=C(Nc1ccc2nc3n(c(=O)c2c1)CCCCC3)C(=O)NC1CC1 .
Result: 687

Query: Also COCc1nc(CCNC(=O)NC2CCCCC2)no1 ?
Result: 691

Query: Proceed to CCC(C)NC(=O)C1CCN(Cc2cc3ccccc3n2Cc2ccccc2Cl)CC1 (stereo not given)
Result: 784

---

RP-LC retention time listing for selected molecules.
# Procedure Details: gradient 5% acetonitrile 3 min, to 50% in 2 min, to 85% in 15 min, held 3 min, 100 µL/min
# Reported Conditions: column: Zorbax Extend-C18 2.1 x 50 mm; eluents: water / acetonitrile, 0.1% formic acid
A complete answer gives the number followed by the unit.

Below, 2 molecules whose answers are already recorded.
>>> result("Cc1scc2nc(C(=O)N3CCN(C4CCCC4)CC3)nc(N3CCCC3)c12")
"550 s"
>>> result("COCc1c(C(=O)O)nnn1-c1cc(C)ccc1F")
"708 s"

Query: # lookup: RP-LC retention time of CCC(C(=O)N1CCC(N2CCCCC2)CC1)n1nc(C)c2sc3ccccc3c2c1=O (configuration not stated)
Result: 676 s

Query: Here is the next molecule: O=C(CSc1nnc(NC(=O)c2ccc(Br)o2)s1)NCC1CCCO1 (configuration not stated)
Result: 648 s

Query: And then COc1ccc(-c2c(C)noc2NC(C)=O)cc1S(=O)(=O)Nc1cc(Cl)ccc1C , what is it?
Result: 792 s

Query: Record: N#CC1(C(=O)NCCc2ccc(Cl)cc2)CC1
Result: 873 s

Query: Proceed to Cc1noc2ncn(CC(=O)NCc3ccc(F)cc3)c(=O)c12
Result: 724 s

Query: Also Cc1cnc(-c2ccccc2)n1C1CCN(S(=O)(=O)c2ccc(C#N)cc2)C1 (configuration not stated) , if possible.
Result: 680 s

---

Entries and their RP-LC retention time values follow.
# Procedure Details: gradient 5% acetonitrile 3 min, to 50% in 2 min, to 85% in 15 min, held 3 min, 100 µL/min
# Reported Conditions: column: Zorbax Extend-C18 2.1 x 50 mm; eluents: water / acetonitrile, 0.1% formic acid

Look over these answered cases.
>>> result("CC1CCN(C(=O)CC2Sc3ncccc3N(C)C2=O)CC1 (stereo not given)")
"726 s"
>>> result("COc1ccc(-c2nc(C)cc3nn(CC(=O)Nc4ccc(C)c(C)c4)c(=O)n23)cc1")
"895 s"
>>> result("Cc1ccc(NC(=O)N2CCC(CCN)CC2)cc1F")
"612 s"
>>> result("COC(=O)c1nc(NC(=O)Cn2nc3c(cc2=O)CCCC3)sc1C")
"710 s"

Please find the next molecule below.
Query: Would you mind telling me what RP-LC retention time value was observed for CCC(=O)Nc1nc2cc(NC(=O)C3CCN(S(=O)(=O)N4CCOCC4)CC3)ccc2s1 ?
Result: 719 s

---

# Procedure Details: gradient 5% acetonitrile 3 min, to 50% in 2 min, to 85% in 15 min, held 3 min, 100 µL/min
# Reported Conditions: column: Zorbax Extend-C18 2.1 x 50 mm; eluents: water / acetonitrile, 0.1% formic acid
Measurement Label: RP-LC retention time (s)
Just the number in s, nothing appended.

Worked examples, 8 molecules total:
>>> numeric_result("O=C(NCCC1=CCCCC1)C1CCN(c2ccncc2)CC1")
638
>>> numeric_result("Cc1ccc(Nc2cc(C)nc(N3CCN(C(=O)c4ccco4)CC3)n2)cc1")
590
>>> numeric_result("Cc1ccc2c(=O)c(C(=O)N3CCCC3)cn(CC(=O)Nc3ccc(C)c(C)c3)c2n1")
733
>>> numeric_result("CCOc1ccccc1OCc1nn2c(COc3ccc(F)cc3)nnc2s1")
1000
>>> numeric_result("O=C(NC1CCCCCC1)c1cccc(Cn2cncn2)c1")
729
>>> numeric_result("Cc1ccc2c(c1)NC1(CCN(S(=O)(=O)c3ccccc3F)CC1)c1cccn1-2")
881
>>> numeric_result("Cc1cccc(-c2nnc(-c3cccc(S(=O)(=O)N4CCCCCC4)c3)o2)c1")
1190
>>> numeric_result("CCc1ccccc1NC(=O)N1CCCC1c1nc(-c2ccccc2)no1 (centres undefined)")
987

Query: Please look up its RP-LC retention time: COc1cccc(-c2ccc(=O)n(Cc3nc(-c4ccc(Cl)cc4)no3)n2)c1
Result: 1110

Query: Continue with COc1ccc(N2CC(CNC(=O)C3CCCC3)OC2=O)cc1OC (centres undefined)
Result: 649

Query: # repeat for O=C(CN1C(=O)C(C(=O)N2CCCC2)Sc2ccccc21)N1CCN(c2cccc(Cl)c2)CC1 (centres undefined)
Result: 923

Query: Another molecule to check: CCCc1noc(CN2N=C(C(=O)N3CCC(C)CC3)S(=O)(=O)c3ccccc32)n1
Result: 954

Query: What do you get for COc1cc(-c2nc3ncccn3c2Nc2cc(C)ccc2C)ccc1O ?
Result: 672

Query: One more molecule: CC(=O)N1CCCCC1c1nc(-c2cccnc2)no1 (centres undefined)
Result: 663

Query: Okay, and CN(C(=O)Cn1cnc2c(-c3ccc(F)cc3)csc2c1=O)c1ccccc1 ?
Result: 948

Query: Proceed to NC(=O)Cn1c(Cc2ccccc2Cl)nc2ccccc21
Result: 591

Query: Follow-up entry: Cc1nc(-c2ccc(OC3CCN(C(=O)NC4CCCC4)C3)cc2)no1 (centres undefined)
Result: 820

---

# Procedure Details: gradient 5% acetonitrile 3 min, to 50% in 2 min, to 85% in 15 min, held 3 min, 100 µL/min
# Reported Conditions: column: Zorbax Extend-C18 2.1 x 50 mm; eluents: water / acetonitrile, 0.1% formic acid
Catalogue of RP-LC retention time values
Numbers only here, please. The scale is s.

# count of solved cases: 4
>>> numeric_result("COc1ccc(S(=O)(=O)C(CNC(=O)c2ccc3c(c2)OCO3)c2cccs2)cc1 (stereo not given)")
787
>>> numeric_result("COc1ccc(NC(=O)CSc2nccnc2-n2nc(C)cc2C)cc1OC")
702
>>> numeric_result("CCN1c2ccc(C)cc2C(=O)NC12CCN(C(=O)c1ccc3c(c1)OCO3)CC2")
788
>>> numeric_result("Cc1ccc(-n2c(=O)n(CC(=O)N3CCCCC3)c3cccnc32)cc1")
780

Query: Need RP-LC retention time, item O=C(NCc1cc(F)cc(F)c1)C1CCN(c2cc(N3CCSCC3)ncn2)CC1
Result: 679

---

# Procedure Details: gradient 5% acetonitrile 3 min, to 50% in 2 min, to 85% in 15 min, held 3 min, 100 µL/min
# Reported Conditions: column: Zorbax Extend-C18 2.1 x 50 mm; eluents: water / acetonitrile, 0.1% formic acid
label 1 if RP-LC retention time is below 800 s. label 0 if not; exact matches included in label 0.

Please review the following examples before continuing.
>>> assigned_class("Cc1cccc(-n2c(=O)c3sccc3n(Cc3nc(-c4ccccc4Cl)no3)c2=O)c1")
"label 0"
>>> assigned_class("CCN(CC)CCNC(=O)C1(O)c2ccccc2NC(=O)N1c1ccc(C)c(C)c1 (stereo unspecified)")
"label 1"
>>> assigned_class("COCCN1C(=O)Cc2ccccc2C1C(=O)NCc1ccccc1 (stereo unspecified)")
"label 1"

Query: Lab note: RP-LC retention time threshold 800 s. Does this compound come in strictly under it? Cc1nc(-n2nc(C)c(Cl)c2C)sc1C(=O)N1CCCCC1
Result: label 0

Query: Thanks! And CCOC(=O)c1ccc(N2C=C(C(=O)N3CCCC3)S(=O)(=O)c3ccc(Cl)cc32)cc1 ?
Result: label 0

Query: Input CCN1CCCn2cc(S(=O)(=O)NCc3ccc(Cl)cc3)cc2C1=O
Result: label 1

Query: Now this one: CCOC(=O)N1CCC(c2nnc(-c3ccco3)s2)CC1
Result: label 1

Query: Continue with Cc1ccc(C)c(S(=O)(=O)NCC2CN(C)CC23CCCCC3)c1 (stereo unspecified)
Result: label 1
